These measurements were taken from patent US20020028807A1.

Quick list: log10 of IC50 per entry.
target.entity: HIV-1 RT V106A (Human immunodeficiency virus type 1 group M subtype B, UniProt P03366, V705A)
Construct: an HIV RT clone pKRT2 containing only the RT p66 gene regulated by the lac operon/trc promoter
method.notes: Reverse transcriptase (RT) assay, V106A mutant
From the text: Among the enzymes for which Human Immunodeficiency Virus (HIV-1) encodes is a reverse transcriptase (1), so-named because it transcribes a DNA copy from an RNA template. This activity can be quantitatively measured in a cell-free enzyme assay and is based upon the observation that reverse transcriptase is able to use a synthetic template poly r(C) primed with a biotinylated oligo d(G) to transcribe a radio-labelled DNA strand utilising 3H-dGTP as a substrate. […]
Scale type: logarithmic (base 10). Underlying IC50 unit: nM.

The cases that follow already have their log10 of IC50 on record.
query.smiles | log10 of IC50
CCN1c2ncc(CCOc3ccnc4ccccc34)cc2C(=O)N(C)c2ccc(F)nc21 | 2.31
CCN1c2ncc(CCOc3cc[n+]([O-])c4ccccc34)cc2C(=O)Nc2c(C)cc(Cl)nc21 | 1.89
CCN1c2ncc(CCOc3cc[n+]([O-])c4ccccc34)cc2C(=O)N(C)c2ccc(F)nc21 | 2.53

Please turn your attention to the following entry.
Query: # lookup: log10 of IC50 of CCN1c2ncc(CCOc3cc[n+]([O-])c4ccccc34)cc2C(=O)N(C)c2ccc(C)nc21
Response: 2.78

---

Quick list: pIC50 per entry.
target.entity: HIV-1 RT K103N/L100I (Human immunodeficiency virus type 1 group M subtype B, UniProt P03366, K702N/L699I)
Construct: an HIV RT clone pKRT2 containing only the RT p66 gene regulated by the lac operon/trc promoter; made in house; host or cells: E. coli JM109, vector pKK233-2
method.notes: Reverse transcriptase (RT) assay, K103N/L100I mutant
Format: biochemical
# pIC50: negative log10 of molar concentration; output just the value

The cases that follow already have their pIC50 on record.
molecule | assay.readout | endpoint.value
Cc1ccnc2c1NC(=O)c1cc(CCOc3ccnc4ccccc34)cnc1N2C1CC1 [compound 3] | pIC50 | 6.91
Cc1ccnc2c1NC(=O)c1cc(CCOc3cc[n+]([O-])c4ccccc34)cnc1N2C1CC1 [compound 15] | pIC50 | 6.57

Query: # lookup: pIC50 of CCN1c2ncc(CCOc3cccc4c3ccc[n+]4[O-])cc2C(=O)N(C)c2ccc(F)nc21 [compound 18]
Response: 6.80

---

target.entity: HIV-1 RT Y188L (Human immunodeficiency virus type 1 group M subtype B, UniProt P03366, Y787L)
Construct: an HIV RT clone pKRT2 containing only the RT p66 gene regulated by the lac operon/trc promoter
method.notes: Reverse transcriptase (RT) assay, Y188L mutant
Quick list: pIC50 per entry.
# pIC50: negative log10 of molar concentration; output just the value

compound | pIC50
CCN1C(=O)c2cc(CCOc3cc[n+]([O-])c4ccccc34)cnc2N(CC)c2ncccc21 [compound 27] | 5.27
CCN1c2ncc(CCOc3cccc4c3ccc[n+]4[O-])cc2C(=O)Nc2c(C)cc(F)nc21 [compound 23] | 5.25
CCN1c2ncc(CCOc3ccnc4ccccc34)cc2C(=O)Nc2c(C)ccnc21 [compound 8] | 5.12
CCN1c2ncc(CCOc3ccnc4ccccc34)cc2C(=O)Nc2c(C)cc(Cl)nc21 [compound 1] | 5.56
CCN1c2nc(Cl)ccc2NC(=O)c2cc(CCOc3cc[n+]([O-])c4ccccc34)cnc21 [compound 22] | 5.52

Query: # lookup: pIC50 of CCN1c2ncc(CCOc3ccnc4ccccc34)cc2C(=O)Nc2c(C)cc(F)nc21 [compound 7]
Response: 5.36

Query: # lookup: pIC50 of Cc1cc(F)nc2c1NC(=O)c1cc(CCOc3ccnc4ccccc34)cnc1N2C1CC1 [compound 5]
Response: 5.59

Query: # lookup: pIC50 of CCN1c2ncc(CCOc3cc[n+]([O-])c4ccccc34)cc2C(=O)N(C)c2ccc(Cl)nc21 [compound 17]
Response: 6.70

Query: # lookup: pIC50 of CCN1c2ncc(CCOc3cc[n+]([O-])c4ccccc34)cc2C(=O)N(C)c2ccc(C)nc21 [compound 28]
Response: 5.92
